# protocol_notes: Metabolic stability in liver microsomes +/- S9 fraction (Table 8)
# Assay type: in vitro ADME
# experimental_parameters: Liver microsomes, human, 1 μM
experimental_endpoint: Mean Parent Remaining (%)
Provide only the numeric value, understood in %.

Identify the reported Mean Parent Remaining for the following entry. Cc1c(-c2cc(F)c(N)cc2F)ccn2c(=O)c(C(=O)[O-])cc(C3CC3)c12.[K+] [Example 28 K salt]
97

Output Mean Parent Remaining of Cc1c(-c2ccc3[nH]ncc3c2)ccn2c(=O)c(C(=O)[O-])cc(C3CC3)c12.[K+] [Example 23 K salt]
67

Give Mean Parent Remaining for the following compound: Cc1c(-c2ccc(N)nc2)ccn2c(=O)c(C(=O)[O-])cc(C3CC3)c12.[K+] [Example 21 K salt]
85

Provide measured Mean Parent Remaining value, entry: Cc1c(-c2ccc(N)c(F)c2)ccn2c(=O)c(C(=O)[O-])cc(C3CC3)c12.[K+] [Example 2 K salt]
90

# return recorded Mean Parent Remaining for input Cc1c(-c2ccc(O)cc2)ccn2c(=O)c(C(=O)[O-])cc(C3CC3)c12.[K+] [Example 46 K salt]
86

----------
# Test system: Group C Streptococcus (4 strains)
# protocol_notes: MIC range, broader panel of Quotient Bioresearch strains (Table 3)
# experimental_parameters: read-out: MIC Range Median, Group C Streptococcus (4 strains)
Give measured log10 MIC50 for each item. Keep answers brief.
Transform log10 | Measure MIC50 | Unit µg/mL

Give log10 MIC50 for Cc1c(-c2ccc(CN)cc2)ccn2c(=O)c(C(=O)[O-])cc(C3CC3)c12.[K+] [Example 31 K salt]
-1.05

Note down log10 MIC50 recorded for Cc1c(C2=CCNCC2)ccn2c(=O)c(C(=O)O)cc(C3CC3)c12
0.30

Supply measured log10 MIC50 of Cc1c(-c2cc(F)c(N)c(F)c2)ccn2c(=O)c(C(=O)[O-])cc(C3CC3)c12.[K+] [Example 39 K salt] in your reply.
-1.05

Please give the documented log10 MIC50 of Cc1c(-c2ccc(N)c(F)c2)c(F)cn2c(=O)c(C(=O)[O-])cc(C3CC3)c12.[K+] [Example 1 K salt]
-0.60

Supply log10 MIC50 value. Item: Cc1c(-c2ccc(N)nc2)ccn2c(=O)c(C(=O)[O-])cc(C3CC3)c12.[K+] [Example 21 K salt]
-1.52

Quote log10 MIC50 reported for Cc1c(-c2ccc(C(N)=O)cc2)c(F)cn2c(=O)c(C(=O)[O-])cc(C3CC3)c12.[K+] [Example 6 K salt] please.
-0.92

----------
Kindly supply the reported solubility at 24 h values for the records listed here.
# protocol_notes: physchem
# Format: physicochemical
# experimental_parameters: fassgf or other biorelevant, thermodynamic from solid
Report only the number, with the unit µM understood.

Output measured solubility at 24 h for this item: Cc1c(-c2ccc3[nH]ncc3c2)ccn2c(=O)c(C(=O)[O-])cc(C3CC3)c12.[K+] [Example 23 K salt]
105

Supply solubility at 24 h value. Item: Cc1c(-c2cc(F)c(N)cc2F)ccn2c(=O)c(C(=O)[O-])cc(C3CC3)c12.[K+] [Example 28 K salt]
153

Tell us which solubility at 24 h value is on record for Cc1c(-c2ccc(O)cc2)ccn2c(=O)c(C(=O)[O-])cc(C3CC3)c12.[K+] [Example 46 K salt]
153

Please list solubility at 24 h recorded for the compound Cc1c(-c2ccc(N)c(F)c2)ccn2c(=O)c(C(=O)[O-])cc(C3CC3)c12.[K+] [Example 2 K salt]
171

State its solubility at 24 h for this compound: Cc1c(-c2ccc(N)nc2)ccn2c(=O)c(C(=O)[O-])cc(C3CC3)c12.[K+] [Example 21 K salt]
200

Values compiled from patent US8962842B2.
